# System: MDR1 (P-gp)
# assay.notes: MDCK-MDR1 permeability assay, blood-brain-barrier penetration potential
# settings: dog, MDCK-MDR1, pH 7.4, MDCK-MDR1 Efflux Ratio
observable: efflux ratio at 120 min, 5 μM

>  <compound>
O=c1cc(-c2ccc(-c3cnc(N(C4CC4)[C@@H]4CC5CC[C@H](N5)[C@@H]4F)cn3)c(O)c2)ccn1CF (single isomer, unassigned)

>  <observable>
efflux ratio at 120 min, 5 μM

>  <result.value>
23

$$$$
>  <compound>
CN(c1cnc(-c2cc(F)c(-c3cn[nH]c3)cc2O)cn1)[C@@H]1CC2N[C@H](C1)CC2(F)F (single isomer, unassigned)

>  <observable>
efflux ratio at 120 min, 5 μM

>  <result.value>
1

$$$$
>  <compound>
CN(c1cnc(-c2cc(F)c(-c3cnn(C)c3)cc2O)cn1)[C@@H]1CC2N[C@H](C1)CC2(F)F (single isomer, unassigned)

>  <observable>
efflux ratio at 120 min, 5 μM

>  <result.value>
1

$$$$
>  <compound>
Cn1cc(-c2cc(O)c(-c3cnc(N(C4CC4)[C@H]4C[C@@H]5CCC(N5)[C@H]4F)cn3)cc2F)cn1 (single isomer, unassigned)

>  <observable>
efflux ratio at 120 min, 5 μM

>  <result.value>
4

$$$$
>  <compound>
COc1cc(-c2cc(O)c(-c3cnc(N(C4CC4)[C@@H]4CC5CC[C@H](N5)[C@@H]4F)cn3)cc2F)cc(F)n1 (single isomer, unassigned)

>  <observable>
efflux ratio at 120 min, 5 μM

>  <result.value>
2

$$$$
>  <compound>
COc1cc(-c2ccc(-c3cnc(N(C)[C@@H]4CC5CC[C@H](N5)[C@@H]4F)cn3)c(O)c2)ccn1 (single isomer, unassigned)

>  <observable>
efflux ratio at 120 min, 5 μM

>  <result.value>
1

$$$$
